- Experimental target: T1, Anti-CD28 Fab (SEQ ID NOs: 202, 203)
- T1 construct: biotinylated and captured on neutravidin coated plates in the phage ELISA
- T1 sequence (VH, as listed by the source, chain 1 of 2): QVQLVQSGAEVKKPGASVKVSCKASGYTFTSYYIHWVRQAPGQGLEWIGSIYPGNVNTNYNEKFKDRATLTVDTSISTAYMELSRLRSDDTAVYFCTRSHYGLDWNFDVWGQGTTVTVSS
- T1 sequence (VL, as listed by the source, chain 2 of 2): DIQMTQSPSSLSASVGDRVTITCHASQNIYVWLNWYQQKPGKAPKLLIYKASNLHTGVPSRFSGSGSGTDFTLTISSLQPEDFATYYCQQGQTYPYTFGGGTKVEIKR
- Assay summary: phage ELISA, Fab on plate;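 further: crude clonal phage supernatants added to wells pretreated with blocking buffer with or without CD28 antigen, then bound phage read out via HRP-linked anti-M13 antibody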
Observable: Anti-CD28 Fab (SEQ ID NOs: 202, 203) signal
Output: the number by itself.

Worked examples, 2 binders total:
stdin: Which measured Anti-CD28 Fab (SEQ ID NOs: 202, 203) signal value corresponds to YCDGHDARYMEKCL [Phage-616] ?
stdout: 1.4

stdin: // query: YCDGHLEVYMDKCL [Phage-672]
stdout: 1.28

// next entry
stdin: Which value of Anti-CD28 Fab (SEQ ID NOs: 202, 203) signal has been reported for YCEGHIGIYMSKCL [Phage-693] in the records?
stdout: 1.23

These measurements were taken from patent US20260274955A1.
